experimental_target: Src (Homo sapiens)
assay_procedure: Src kinase assay, IMAP fluorescence polarization
Type: biochemical
experimental_setup: 50 or 100 μM ATP; average; read-out: Src-AVERAGE Ki
Please respond with 1 (yes) when measured Ki is strictly beneath 50 nM, and with 0 (no) in all other cases.

Check out these entries, answers already filled in.
>>> class("Cc1cccc(F)c1N1Cc2cnc(N)nc2N([C@@H]2CCNC2)C1=O [Example 67]")
"0 (no)"
>>> class("Cc1cccc(F)c1N1Cc2cnc(N)nc2N(C2CCC(N)C2)C1=O (stereo not drawn) [Example 76]")
"1 (yes)"
>>> class("Cc1cccc(F)c1N1Cc2cnc(N)cc2N(C2CNC2)C1=O [Example 4]")
"0 (no)"
>>> class("CN[C@H]1CC[C@H](N2C(=O)N(c3c(C)cccc3F)Cc3cnc(N)nc32)CC1 [Example 61]")
"1 (yes)"
>>> class("Cc1cccc(F)c1N1Cc2cnc(N)cc2N([C@H]2CCNC2)C1=O [Example 78]")
"0 (no)"

Input line: For this compound, is Ki lower than 50 nM? Cc1cccc(F)c1N1Cc2cnc(N)nc2N(C2CCCC(N)C2)C1=O (stereo not drawn) [Example 75]
Output line: 1 (yes)

Input line: Please answer likewise for Cc1cccc(F)c1N1Cc2cnc(N)cc2N([C@H]2CCCNCC2)C1=O [Example 54]
Output line: 0 (no)

Input line: Entry to check: Cc1cccc(F)c1N1Cc2cnc(N)cc2N([C@@H]2CCCCNC2)C1=O [Example 50]
Output line: 1 (yes)

* * *

experimental_target: SIK3 (Homo sapiens)
Sequence (Q9Y2K2 whole entry): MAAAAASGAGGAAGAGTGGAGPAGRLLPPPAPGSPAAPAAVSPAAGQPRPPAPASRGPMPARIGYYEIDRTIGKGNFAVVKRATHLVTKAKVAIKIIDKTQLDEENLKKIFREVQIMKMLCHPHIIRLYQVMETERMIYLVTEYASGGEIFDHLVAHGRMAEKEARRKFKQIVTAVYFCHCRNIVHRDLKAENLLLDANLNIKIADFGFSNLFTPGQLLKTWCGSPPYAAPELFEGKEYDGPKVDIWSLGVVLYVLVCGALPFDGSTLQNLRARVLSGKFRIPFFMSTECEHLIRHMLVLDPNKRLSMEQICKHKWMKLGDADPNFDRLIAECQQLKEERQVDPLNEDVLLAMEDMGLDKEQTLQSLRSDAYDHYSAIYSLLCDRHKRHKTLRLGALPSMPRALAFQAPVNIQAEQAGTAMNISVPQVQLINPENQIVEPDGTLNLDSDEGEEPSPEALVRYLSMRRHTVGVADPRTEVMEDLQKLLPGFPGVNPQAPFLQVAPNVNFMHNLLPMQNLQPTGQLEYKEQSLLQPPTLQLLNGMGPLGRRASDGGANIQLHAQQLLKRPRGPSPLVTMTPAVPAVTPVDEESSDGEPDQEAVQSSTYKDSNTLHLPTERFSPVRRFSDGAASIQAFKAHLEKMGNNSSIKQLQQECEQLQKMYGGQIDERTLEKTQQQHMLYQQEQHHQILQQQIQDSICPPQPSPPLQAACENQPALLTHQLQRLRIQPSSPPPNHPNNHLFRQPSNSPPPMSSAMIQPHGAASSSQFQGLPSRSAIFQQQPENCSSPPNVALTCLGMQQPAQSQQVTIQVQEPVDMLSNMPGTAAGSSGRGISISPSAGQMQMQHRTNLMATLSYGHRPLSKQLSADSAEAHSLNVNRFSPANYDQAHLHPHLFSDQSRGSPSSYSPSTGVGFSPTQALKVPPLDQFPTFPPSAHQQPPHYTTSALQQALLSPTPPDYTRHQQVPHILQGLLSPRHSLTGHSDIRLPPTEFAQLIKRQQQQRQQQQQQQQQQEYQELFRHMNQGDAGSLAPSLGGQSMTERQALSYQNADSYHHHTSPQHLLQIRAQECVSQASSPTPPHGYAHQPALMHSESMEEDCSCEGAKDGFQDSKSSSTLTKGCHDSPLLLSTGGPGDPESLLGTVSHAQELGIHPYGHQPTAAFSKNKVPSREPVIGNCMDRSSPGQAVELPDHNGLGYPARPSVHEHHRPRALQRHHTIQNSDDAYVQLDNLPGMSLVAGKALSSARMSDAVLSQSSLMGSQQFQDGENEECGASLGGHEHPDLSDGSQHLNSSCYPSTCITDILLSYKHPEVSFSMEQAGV
assay_procedure: SIK3 kinase assay, IMAP fluorescence polarization
Assay type: biochemical
experimental_setup: 50 or 100 μM ATP; average; read-out: SIK3-AVERAGE Ki
value_kind: pKi
pKi is a log-scale quantity: -log10 of the concentration expressed in molar.

Sample answers from the record:
>>> value_measured("Cc1cccc(F)c1N1Cc2cnc(N)cc2N([C@H]2CCC[C@H](N)C2)C1=O (relative stereo)")
8.33
>>> value_measured("Cc1cccc(F)c1N1Cc2cnc(N)nc2N([C@H]2CC[C@@H](N(C)C)CC2)C1=O")
8.41
>>> value_measured("Cc1cccc(F)c1N1Cc2cnc(N)cc2N(C2CN(C)C2)C1=O")
6.90
>>> value_measured("Cc1cccc(F)c1N1Cc2cnc(N)nc2N([C@H]2CCCNC2)C1=O")
8.20
>>> value_measured("Cc1cccc(F)c1N1Cc2cnccc2N([C@H]2CCCCNC2)C1=O")
6.54
>>> value_measured("Cc1cccc(F)c1N1Cc2cnc(N)cc2N([C@H]2CCN(C)C2)C1=O")
7.07
>>> value_measured("Cc1cccc(F)c1N1Cc2cnc(N)cc2N([C@H]2CC[C@@H](N)CC2)C1=O")
9.03
>>> value_measured("Cc1cccc(Cl)c1N1Cc2cnc(N)nc2N(C2CN(C)C2)C1=O")
7.26

Input line: What pKi value was documented for this compound, Cc1cccc(F)c1N1Cc2cnc(N)cc2N([C@H]2CC[C@H](N)CC2)C1=O ?
Output line: 9.55

Input line: Next compound up: Cc1cccc(F)c1N1Cc2cnc(N)cc2N([C@H]2CCCNCC2)C1=O
Output line: 8.38

Input line: Lookup Cc1cccc(F)c1N1Cc2cnc(N(C)C)cc2N([C@H]2CC[C@@H](N(C)C)CC2)C1=O
Output line: 6.25

Input line: Entry Cc1cccc(F)c1N1Cc2cnc(N)cc2N([C@@H]2CCCN(C)CC2)C1=O please
Output line: 9.52

Input line: Here is the next compound: Cc1cccc(F)c1N1Cc2cnc(N)cc2N([C@H]2CC[C@@H](N(C)C)CC2)C1=O
Output line: 8.93

Input line: Same question for Cc1cccc(F)c1N1Cc2cnc(N)nc2N(CC2CCNCC2)C1=O please.
Output line: 9.14

Input line: Proceed to Cc1cccc(F)c1N1Cc2cnc(N)cc2N([C@H]2CCC[C@@H](N)C2)C1=O (relative stereo)
Output line: 8.84

Input line: Query Cc1cccc(Cl)c1N1Cc2cnc(N)cc2N(C2CN(C)C2)C1=O next
Output line: 6.84

Input line: And Cc1cccc(F)c1N1Cc2cnc(N)cc2N([C@H]2CCCN(C)C2)C1=O ?
Output line: 8.23

Input line: And the next one, Cc1cccc(Cl)c1N1Cc2cnc(N)cc2N(C2CNC2)C1=O ?
Output line: 7.34

Input line: Also check Cc1cccc(F)c1N1Cc2cnc(N)nc2N([C@H]2CCCCN(C)C2)C1=O
Output line: 8.06

Input line: One more compound: Cc1cccc(F)c1N1Cc2cnc(N)nc2N(C2CCCC(N)C2)C1=O (stereo not drawn)
Output line: 8.52

Input line: How about this compound: Cc1cccc(F)c1N1Cc2cnc(N)cc2N([C@@H]2CCCN(C)C2)C1=O
Output line: 8.30

Input line: // repeat for CN[C@H]1CC[C@H](N2C(=O)N(c3c(C)cccc3F)Cc3cnc(N)nc32)CC1 and report
Output line: 9.55

* * *

experimental_target: SIK3 (Homo sapiens)
assay_procedure: SIK3 kinase assay, IMAP fluorescence polarization
Type: biochemical
experimental_setup: 50 or 100 μM ATP; average; read-out: SIK3-AVERAGE Ki
Readings of pKi for the listed molecules
Reminder that pKi means the negative base-10 logarithm of the concentration expressed in mol/L.

>>> value_measured("Cc1cccc(F)c1N1Cc2cnc(N)nc2N(C2CCC(N)C2)C1=O (stereo not shown)")
8.93
>>> value_measured("CN[C@H]1CC[C@H](N2C(=O)N(c3c(C)cccc3F)Cc3cnc(N)cc32)CC1")
8.87
>>> value_measured("Cc1cccc(F)c1N1Cc2cnc(N)cc2N(CC2CCNCC2)C1=O")
9.26

Input line: Short answer please: pKi, SIK3 (Homo sapiens), entry Cc1cccc(F)c1N1Cc2cnc(N)nc2N([C@@H]2CCCN(C)CC2)C1=O
Output line: 8.83

Input line: // same read-out, input: Cc1cccc(F)c1N1Cc2cnc(N)cc2N([C@@H]2CCNC2)C1=O
Output line: 7.78

Input line: Entry to check: Cc1cccc(F)c1N1Cc2cnc(N)nc2N([C@H]2CCCNCC2)C1=O
Output line: 9.03

Input line: What do you have for Cc1cccc(F)c1N1Cc2cnc(N)cc2N([C@H]2CCNC2)C1=O ?
Output line: 7.81

* * *

Listing of recorded Ki by entry.
experimental_target: SIK1 (Homo sapiens, UniProt P57059)
Sequence (P57059 whole entry): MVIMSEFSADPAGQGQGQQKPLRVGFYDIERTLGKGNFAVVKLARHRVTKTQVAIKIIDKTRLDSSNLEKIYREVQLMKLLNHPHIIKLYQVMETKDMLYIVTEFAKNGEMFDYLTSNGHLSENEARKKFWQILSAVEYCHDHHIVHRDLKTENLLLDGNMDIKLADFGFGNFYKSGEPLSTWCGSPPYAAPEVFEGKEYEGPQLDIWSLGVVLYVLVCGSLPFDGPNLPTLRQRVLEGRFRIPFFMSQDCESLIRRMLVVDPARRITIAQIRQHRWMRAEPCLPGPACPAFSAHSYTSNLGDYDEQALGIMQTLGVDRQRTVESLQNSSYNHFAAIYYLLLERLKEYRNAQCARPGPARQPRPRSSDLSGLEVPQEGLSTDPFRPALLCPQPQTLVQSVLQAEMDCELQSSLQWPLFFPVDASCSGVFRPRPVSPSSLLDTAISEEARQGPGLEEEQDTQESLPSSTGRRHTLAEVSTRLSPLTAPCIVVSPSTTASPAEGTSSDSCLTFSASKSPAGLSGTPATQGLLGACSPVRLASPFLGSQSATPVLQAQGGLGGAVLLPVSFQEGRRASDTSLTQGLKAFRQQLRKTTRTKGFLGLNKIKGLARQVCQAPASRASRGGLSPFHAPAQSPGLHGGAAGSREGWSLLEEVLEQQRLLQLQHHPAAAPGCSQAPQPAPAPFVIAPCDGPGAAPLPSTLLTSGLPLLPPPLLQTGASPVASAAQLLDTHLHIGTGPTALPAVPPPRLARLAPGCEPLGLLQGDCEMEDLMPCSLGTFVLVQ
assay_procedure: SIK1 kinase assay, IMAP fluorescence polarization
Type: biochemical
experimental_setup: 50 or 100 μM ATP; average; read-out: SIK1-AVERAGE Ki
Give the value, in units of nM, as a plain number.

Illustrative cases are given below, each with its answer.
>>> value_measured("Cc1cccc(F)c1N1Cc2cnc(N)nc2N(C2CNC2)C1=O")
9.71
>>> value_measured("CNc1cc2c(cn1)CN(c1c(C)cccc1F)C(=O)N2C1CN(C)C1")
66.9
>>> value_measured("CN[C@H]1CC[C@H](N2C(=O)N(c3c(C)cccc3F)Cc3cnc(N)cc32)CC1")
0.733

Input line: Which Ki reading was recorded for the molecule Cc1cccc(F)c1N1Cc2cnc(N)cc2N([C@H]2CCC[C@H](N)C2)C1=O (relative stereo) ?
Output line: 1.25

Input line: What about this molecule? Cc1cccc(F)c1N1Cc2cnc(N)cc2N([C@H]2CC[C@H](N)CC2)C1=O
Output line: 0.45

Input line: # iterate: Cc1cccc(Cl)c1N1Cc2cnc(N)nc2N(C2CNC2)C1=O
Output line: 5.8

Input line: Repeat with Cc1cccc(F)c1N1Cc2cnc(N)cc2N([C@H]2CC[C@H](N(C)C)CC2)C1=O
Output line: 0.292

* * *

experimental_target: Abl (Homo sapiens)
Sequence (P00519 whole entry): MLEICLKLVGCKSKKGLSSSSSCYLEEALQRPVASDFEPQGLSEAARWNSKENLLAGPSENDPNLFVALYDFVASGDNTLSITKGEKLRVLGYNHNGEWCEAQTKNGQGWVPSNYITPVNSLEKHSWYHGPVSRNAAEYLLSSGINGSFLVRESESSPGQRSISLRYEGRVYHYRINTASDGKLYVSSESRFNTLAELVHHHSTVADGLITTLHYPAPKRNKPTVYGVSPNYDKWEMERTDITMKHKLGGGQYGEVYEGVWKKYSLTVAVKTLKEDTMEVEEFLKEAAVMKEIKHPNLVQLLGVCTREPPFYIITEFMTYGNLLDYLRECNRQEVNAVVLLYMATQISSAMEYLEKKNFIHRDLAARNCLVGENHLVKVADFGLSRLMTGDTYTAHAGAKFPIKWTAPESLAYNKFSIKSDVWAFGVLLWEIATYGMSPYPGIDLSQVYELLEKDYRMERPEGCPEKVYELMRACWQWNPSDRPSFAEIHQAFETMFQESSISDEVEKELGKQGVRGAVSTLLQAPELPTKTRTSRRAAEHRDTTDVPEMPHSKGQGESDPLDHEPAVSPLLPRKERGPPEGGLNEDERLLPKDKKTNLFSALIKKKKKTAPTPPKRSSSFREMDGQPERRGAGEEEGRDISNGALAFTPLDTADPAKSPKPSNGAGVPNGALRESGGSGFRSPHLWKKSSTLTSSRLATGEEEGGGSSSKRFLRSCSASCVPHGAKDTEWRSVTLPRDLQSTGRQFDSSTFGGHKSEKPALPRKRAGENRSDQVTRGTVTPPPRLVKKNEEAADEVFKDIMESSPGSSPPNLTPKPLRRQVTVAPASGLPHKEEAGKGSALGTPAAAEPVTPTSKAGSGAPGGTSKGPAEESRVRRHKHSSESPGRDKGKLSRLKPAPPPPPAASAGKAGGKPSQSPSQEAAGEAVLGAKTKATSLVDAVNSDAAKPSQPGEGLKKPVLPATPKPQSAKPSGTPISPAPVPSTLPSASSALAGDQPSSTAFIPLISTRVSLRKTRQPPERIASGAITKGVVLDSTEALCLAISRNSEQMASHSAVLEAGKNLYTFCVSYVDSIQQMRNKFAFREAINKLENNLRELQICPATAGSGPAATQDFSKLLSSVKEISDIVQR
assay_procedure: Abl kinase assay, IMAP fluorescence polarization
Format: biochemical
experimental_setup: 50 or 100 μM ATP; average; read-out: Abl-AVERAGE Ki
Entries annotated with measured pKi
// field semantics: pKi = negative decimal log of concentration (mol/L)

Some solved cases for reference:
>>> value_measured("Cc1cccc(F)c1N1Cc2cnc(N)cc2N([C@H]2CC[C@@H](N(C)C)CC2)C1=O")
7.37
>>> value_measured("Cc1cccc(F)c1N1Cc2cnc(N)cc2N([C@@H]2CCCNCC2)C1=O")
7.98
>>> value_measured("Cc1cccc(F)c1N1Cc2cnc(N)cc2N([C@H]2CCC[C@H](N)C2)C1=O (relative stereo)")
7.85

Input line: Name the recorded pKi for Cc1cccc(F)c1N1Cc2cnc(N)nc2N(CC2CCNCC2)C1=O .
Output line: 8.51

Input line: Then this compound: Cc1cccc(F)c1N1Cc2cnc(N)cc2N([C@H]2CC[C@@H](N)CC2)C1=O
Output line: 7.37

* * *

experimental_target: Src (Homo sapiens, UniProt P12931)
Sequence (P12931 whole entry): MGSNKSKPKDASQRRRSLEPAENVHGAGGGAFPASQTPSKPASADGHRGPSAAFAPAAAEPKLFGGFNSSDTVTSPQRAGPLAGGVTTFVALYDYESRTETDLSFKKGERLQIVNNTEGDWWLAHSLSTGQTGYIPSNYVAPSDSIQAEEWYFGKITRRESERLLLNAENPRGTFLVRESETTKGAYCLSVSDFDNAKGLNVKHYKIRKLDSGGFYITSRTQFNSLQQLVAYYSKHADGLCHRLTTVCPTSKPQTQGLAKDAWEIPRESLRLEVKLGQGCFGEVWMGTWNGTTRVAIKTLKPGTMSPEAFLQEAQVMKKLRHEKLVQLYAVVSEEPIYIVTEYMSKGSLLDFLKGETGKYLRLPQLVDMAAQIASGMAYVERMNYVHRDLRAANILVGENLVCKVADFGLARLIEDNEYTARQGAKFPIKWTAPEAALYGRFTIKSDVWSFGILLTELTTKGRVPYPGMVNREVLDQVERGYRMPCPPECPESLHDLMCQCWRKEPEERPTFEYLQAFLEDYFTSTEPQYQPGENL
assay_procedure: Src kinase assay, IMAP fluorescence polarization
Type: biochemical
experimental_setup: 50 or 100 μM ATP; average; read-out: Src-AVERAGE Ki
So basically, if Ki comes in under 50 nM it's Satisfied, and if it's 50 nM or more it's Not satisfied.

Input line: Quick check: does Cc1cccc(F)c1N1Cc2cnc(N)nc2N(C2CNC2)C1=O have Ki under 50 nM?
Output line: Not satisfied

Input line: Now consider Cc1cccc(F)c1N1Cc2cnc(N)cc2N([C@H]2CCC[C@@H](N(C)C)C2)C1=O (relative stereo) and answer again.
Output line: Not satisfied

Input line: Also Cc1cccc(F)c1N1Cc2cnc(N)cc2N([C@@H]2CCNC2)C1=O ?
Output line: Not satisfied

Input line: Check Cc1cccc(F)c1N1Cc2cnc(N(C)C)cc2N([C@H]2CCC[C@@H](N(C)C)C2)C1=O (relative stereo) too.
Output line: Not satisfied

Input line: Proceed to Cc1cccc(F)c1N1Cc2cnc(N)nc2N([C@H]2CCCCNC2)C1=O
Output line: Not satisfied

Input line: Please answer likewise for Cc1cccc(F)c1N1Cc2cnc(N)nc2N([C@H]2CCCN(C)CC2)C1=O
Output line: Not satisfied

Input line: For Cc1cccc(F)c1N1Cc2cnc(N(C)C)cc2N([C@H]2CC[C@@H](N(C)C)CC2)C1=O then?
Output line: Not satisfied

Input line: Now try Cc1cccc(F)c1N1Cc2cnc(N)cc2N([C@H]2CC[C@H](N)CC2)C1=O .
Output line: Satisfied

Input line: Try the compound Cc1cccc(F)c1N1Cc2cnc(N)nc2N([C@H]2CC[C@H](N(C)C)CC2)C1=O
Output line: Not satisfied

Input line: Proceed to CN[C@H]1CC[C@@H](N2C(=O)N(c3c(C)cccc3F)Cc3cnc(N)cc32)CC1
Output line: Satisfied

Input line: Now this one: Cc1cccc(F)c1N1Cc2cnc(N)cc2N([C@H]2CC[C@@H](N)CC2)C1=O
Output line: Satisfied

Input line: Also check Cc1cccc(Cl)c1N1Cc2cnc(N)cc2N(C2CNC2)C1=O
Output line: Not satisfied
